Run Description: MRT in fasted Wistar-Han rat measured up to 24 hrs by LC-MS/MS analysis
Assay type: ADME
Assay Context: in vivo
Readout Kind: MRT (h)

The following molecules have reported results that may help.
C=CC(=O)N1C[C@H](C)N(c2nc(=O)n3c4nc(c(F)cc24)-c2c(F)cccc2OCCOc2ccnc(C(C)C)c2-3)C[C@H]1C: 0.6
C=CC(=O)N1C[C@H](C)N(c2nc(=O)n3c4nc(c(F)cc24)-c2c(ccc(F)c2F)OCCOc2ccnc(C(C)C)c2-3)C[C@H]1C: 0.7
C=CC(=O)N1C[C@H](C)N(c2nc(=O)n3c4nc(c(F)cc24)-c2c(ccc(F)c2F)OCC(F)(F)CCc2ccnc(C(C)C)c2-3)C[C@H]1C: 1.8
C=CC(=O)N1C[C@H](C)N(c2nc(=O)n3c4nc(c(F)cc24)-c2c(F)cc(F)cc2OCCOc2ccnc(C(C)C)c2-3)C[C@H]1C: 0.7
C=CC(=O)N1C[C@H](C)N(c2nc(=O)n3c4nc(c(Cl)cc24)-c2c(F)ccc(F)c2OCCOc2ccnc(C(C)C)c2-3)C[C@H]1C: 1.1

[A] C=CC(=O)N1C[C@H](C)N(c2nc(=O)n3c4nc(c(F)cc24)-c2c(F)cccc2OCC(F)(F)CCc2ccnc(C(C)C)c2-3)C[C@H]1C
[B] C=CC(=O)N1C[C@H](C)N(c2nc(=O)n3c4nc(c(C)cc24)-c2c(F)ccc(F)c2OCCOc2ccnc(C(C)C)c2-3)C[C@H]1C
[C] C=CC(=O)N1CCN(c2nc(=O)n3c4nc(c(F)cc24)-c2c(F)cccc2OCCCCc2ccnc(C(C)C)c2-3)[C@@H](C)C1
[D] C=CC(=O)N1C[C@H](C)N(c2nc(=O)n3c4nc(c(F)cc24)-c2c(F)ccc(F)c2OCCOc2ccnc(C(C)C)c2-3)C[C@H]1C
-- ask Arrange these 4 molecules in increasing order of MRT. // format: requested-order list of labels
-- reply C, B, D, A

* * *

Run Description: Unbound plasma clearance in fasted Wistar-Han rat measured up to 24 hrs by LC-MS/MS analysis
Format: ADME
Readout Kind: CL free (mL/min/kg)

C=CC(=O)N1CCN(c2nc(=O)n3c4nc(c(F)cc24)-c2c(F)cccc2OCCCCc2ccnc(C(C)C)c2-3)[C@@H](C)C1: 770

[a] C=CC(=O)N1C[C@H](C)N(c2nc(=O)n3c4nc(c(F)cc24)-c2c(ccc(F)c2F)OCCOc2ccnc(C(C)C)c2-3)C[C@H]1C
[b] C=CC(=O)N1C[C@H](C)N(c2nc(=O)n3c4nc(c(F)cc24)-c2c(F)cccc2OCCOc2ccnc(C(C)C)c2-3)C[C@H]1C
-- ask Could you kindly indicate whether a or b has the higher CL free value? Returns: label corresponding to the selected item.
-- reply a
(a: 434 mL/min/kg, b: 299 mL/min/kg)
